# particulars: 333.15 K; 35000 kPa; Liquid; Vibrating tube method
reportedProperty: mass density (kg/m3)

compound: CCCCCCCC[n+]1cccc(C)c1.F[B-](F)(F)F [N-octyl-3-methylpyridinium tetrafluoroborate]
reportedValue: 1090.88

compound: CCCC[n+]1cccc(C)c1.N#C[N-]C#N [1-butyl-3-methylpyridinium dicyanamide]
reportedValue: 1042.19

compound: CCCC[n+]1ccccc1.F[B-](F)(F)F [1-butylpyridinium tetrafluoroborate]
reportedValue: 1206.49

compound: CCC[n+]1ccccc1Oc1ccc(Cl)c[n+]1CCOS(=O)(=O)[O-].F[B-](F)(F)F
reportedValue: 1244.07

compound: CCCC[n+]1ccccc1.O=S(=O)([O-])C(F)(F)F [1-butylpyridinium trifluoromethanesulfonate]
reportedValue: 1308.77

---

# particulars: 303.15 K; 35000 kPa; Liquid; Vibrating tube method
Let's look at some molecules and their measured mass density.

molecule: CCCC[n+]1cccc(C)c1.N#C[N-]C#N [1-butyl-3-methylpyridinium dicyanamide]
mass density / kg/m3: 1059.35

molecule: CCCCCCCC[n+]1cccc(C)c1.F[B-](F)(F)F [N-octyl-3-methylpyridinium tetrafluoroborate]
mass density / kg/m3: 1109.47

molecule: CCCC[n+]1ccccc1.O=S(=O)([O-])C(F)(F)F [1-butylpyridinium trifluoromethanesulfonate]
mass density / kg/m3: 1330.48

molecule: CCCC[n+]1ccccc1.F[B-](F)(F)F [1-butylpyridinium tetrafluoroborate]
mass density / kg/m3: 1226.12

molecule: CCC[n+]1ccccc1Oc1ccc(Cl)c[n+]1CCOS(=O)(=O)[O-].F[B-](F)(F)F
mass density / kg/m3: 1264.47

---

Let's look at some compounds and their measured mass density.
# particulars: 293.15 K; 5000 kPa; Liquid; Vibrating tube method

compound: CCCCCCCC[n+]1cccc(C)c1.F[B-](F)(F)F [N-octyl-3-methylpyridinium tetrafluoroborate]
mass density / kg/m3: 1102.06
--
compound: CCCC[n+]1ccccc1.F[B-](F)(F)F [1-butylpyridinium tetrafluoroborate]
mass density / kg/m3: 1220.21
--
compound: CCCC[n+]1cccc(C)c1.N#C[N-]C#N [1-butyl-3-methylpyridinium dicyanamide]
mass density / kg/m3: 1054.46
--
compound: CCC[n+]1ccccc1Oc1ccc(Cl)c[n+]1CCOS(=O)(=O)[O-].F[B-](F)(F)F
mass density / kg/m3: 1259.28

---

Let's look at some compounds and their measured mass density.
# particulars: 303.15 K; 5000 kPa; Liquid; Vibrating tube method
± gives the expanded uncertainty stated by the source.
reportedProperty: mass density

compound: CCCCCCCC[n+]1cccc(C)c1.F[B-](F)(F)F [N-octyl-3-methylpyridinium tetrafluoroborate]
reportedValue: 1095.28 ± 1.1 kg/m3
--
compound: CCCC[n+]1cccc(C)c1.N#C[N-]C#N [1-butyl-3-methylpyridinium dicyanamide]
reportedValue: 1048.3 ± 0.95 kg/m3
--
compound: CCCC[n+]1ccccc1.F[B-](F)(F)F [1-butylpyridinium tetrafluoroborate]
reportedValue: 1213.26 ± 0.45 kg/m3
--
compound: CCC[n+]1ccccc1Oc1ccc(Cl)c[n+]1CCOS(=O)(=O)[O-].F[B-](F)(F)F
reportedValue: 1252.02 ± 0.49 kg/m3
--
compound: CCCC[n+]1ccccc1.O=S(=O)([O-])C(F)(F)F [1-butylpyridinium trifluoromethanesulfonate]
reportedValue: 1314.63 ± 0.56 kg/m3

---

# particulars: 283.15 K; 25000 kPa; Liquid; Vibrating tube method
reportedProperty: mass density (kg/m3)

compound: CCCC[n+]1ccccc1.F[B-](F)(F)F [1-butylpyridinium tetrafluoroborate]
measurementUnit: kg/m3
reportedValue: 1235.92
--
compound: CCC[n+]1ccccc1Oc1ccc(Cl)c[n+]1CCOS(=O)(=O)[O-].F[B-](F)(F)F
measurementUnit: kg/m3
reportedValue: 1274.97
--
compound: CCCCCCCC[n+]1cccc(C)c1.F[B-](F)(F)F [N-octyl-3-methylpyridinium tetrafluoroborate]
measurementUnit: kg/m3
reportedValue: 1117.71
--
compound: CCCC[n+]1cccc(C)c1.N#C[N-]C#N [1-butyl-3-methylpyridinium dicyanamide]
measurementUnit: kg/m3
reportedValue: 1067.75

---

# particulars: 303.15 K; 60000 kPa; Liquid; Vibrating tube method

compound: CCC[n+]1ccccc1Oc1ccc(Cl)c[n+]1CCOS(=O)(=O)[O-].F[B-](F)(F)F
mass density, kg/m3: 1273.55
--
compound: CCCC[n+]1ccccc1.O=S(=O)([O-])C(F)(F)F [1-butylpyridinium trifluoromethanesulfonate]
mass density, kg/m3: 1342.03
--
compound: CCCCCCCC[n+]1cccc(C)c1.F[B-](F)(F)F [N-octyl-3-methylpyridinium tetrafluoroborate]
mass density, kg/m3: 1119.7
--
compound: CCCC[n+]1ccccc1.F[B-](F)(F)F [1-butylpyridinium tetrafluoroborate]
mass density, kg/m3: 1235.58
--
compound: CCCC[n+]1cccc(C)c1.N#C[N-]C#N [1-butyl-3-methylpyridinium dicyanamide]
mass density, kg/m3: 1067.59

---

# particulars: 303.15 K; 15000 kPa; Liquid; Vibrating tube method
reportedProperty: mass density (kg/m3)

compound: CCCCCCCC[n+]1cccc(C)c1.F[B-](F)(F)F [N-octyl-3-methylpyridinium tetrafluoroborate]
measurementUnit: kg/m3
reportedValue: 1100.3
--
compound: CCCC[n+]1ccccc1.O=S(=O)([O-])C(F)(F)F [1-butylpyridinium trifluoromethanesulfonate]
measurementUnit: kg/m3
reportedValue: 1320.2
--
compound: CCCC[n+]1cccc(C)c1.N#C[N-]C#N [1-butyl-3-methylpyridinium dicyanamide]
measurementUnit: kg/m3
reportedValue: 1052.05
--
compound: CCC[n+]1ccccc1Oc1ccc(Cl)c[n+]1CCOS(=O)(=O)[O-].F[B-](F)(F)F
measurementUnit: kg/m3
reportedValue: 1256.38
--
compound: CCCC[n+]1ccccc1.F[B-](F)(F)F [1-butylpyridinium tetrafluoroborate]
measurementUnit: kg/m3
reportedValue: 1217.74

---

# particulars: 288.15 K; 5000 kPa; Liquid; Vibrating tube method
reportedProperty: mass density (kg/m3)

compound: CCCCCCCC[n+]1cccc(C)c1.F[B-](F)(F)F [N-octyl-3-methylpyridinium tetrafluoroborate]
reportedValue: 1105.22
//
compound: CCCC[n+]1cccc(C)c1.N#C[N-]C#N [1-butyl-3-methylpyridinium dicyanamide]
reportedValue: 1057.59
//
compound: CCC[n+]1ccccc1Oc1ccc(Cl)c[n+]1CCOS(=O)(=O)[O-].F[B-](F)(F)F
reportedValue: 1262.99
//
compound: CCCC[n+]1ccccc1.F[B-](F)(F)F [1-butylpyridinium tetrafluoroborate]
reportedValue: 1223.77

---

# particulars: 328.15 K; 15000 kPa; Liquid; Vibrating tube method

molecule: CCCC[n+]1ccccc1.O=S(=O)([O-])C(F)(F)F [1-butylpyridinium trifluoromethanesulfonate]
mass density / kg/m3: 1301.2

molecule: CCCCCCCC[n+]1cccc(C)c1.F[B-](F)(F)F [N-octyl-3-methylpyridinium tetrafluoroborate]
mass density / kg/m3: 1083.91

molecule: CCCC[n+]1ccccc1.F[B-](F)(F)F [1-butylpyridinium tetrafluoroborate]
mass density / kg/m3: 1200.54

molecule: CCCC[n+]1cccc(C)c1.N#C[N-]C#N [1-butyl-3-methylpyridinium dicyanamide]
mass density / kg/m3: 1037.3

molecule: CCC[n+]1ccccc1Oc1ccc(Cl)c[n+]1CCOS(=O)(=O)[O-].F[B-](F)(F)F
mass density / kg/m3: 1238.61

---

# particulars: 293.15 K; 10000 kPa; Liquid; Vibrating tube method
Let's look at some compounds and their measured mass density.
reportedProperty: mass density (kg/m3)

compound: CCCCCCCC[n+]1cccc(C)c1.F[B-](F)(F)F [N-octyl-3-methylpyridinium tetrafluoroborate]
reportedProperty: mass density
reportedValue: 1104.51

compound: CCCC[n+]1cccc(C)c1.N#C[N-]C#N [1-butyl-3-methylpyridinium dicyanamide]
reportedProperty: mass density
reportedValue: 1056.37

compound: CCCC[n+]1ccccc1.F[B-](F)(F)F [1-butylpyridinium tetrafluoroborate]
reportedProperty: mass density
reportedValue: 1222.35

compound: CCC[n+]1ccccc1Oc1ccc(Cl)c[n+]1CCOS(=O)(=O)[O-].F[B-](F)(F)F
reportedProperty: mass density
reportedValue: 1261.4

---

# particulars: 303.15 K; 100 kPa; Liquid; Vibrating tube method
Let's look at some molecules and their measured mass density.
reportedProperty: mass density (kg/m3)

molecule: CCC[n+]1ccccc1Oc1ccc(Cl)c[n+]1CCOS(=O)(=O)[O-].F[B-](F)(F)F
reportedProperty: mass density
reportedValue: 1249.77
//
molecule: CCCCCCCC[n+]1cccc(C)c1.F[B-](F)(F)F [N-octyl-3-methylpyridinium tetrafluoroborate]
reportedProperty: mass density
reportedValue: 1092.83
//
molecule: CCCC[n+]1cccc(C)c1.N#C[N-]C#N [1-butyl-3-methylpyridinium dicyanamide]
reportedProperty: mass density
reportedValue: 1046.36
//
molecule: CCCC[n+]1ccccc1.O=S(=O)([O-])C(F)(F)F [1-butylpyridinium trifluoromethanesulfonate]
reportedProperty: mass density
reportedValue: 1311.77
//
molecule: CCCC[n+]1ccccc1.F[B-](F)(F)F [1-butylpyridinium tetrafluoroborate]
reportedProperty: mass density
reportedValue: 1210.91
